Source of measurements: PubChem BioAssay (NCI)

Reported TGI values for the following molecules.
System: NCI/ADR-RES ovarian
Assay: NCI tumour cell line growth inhibition, 48 h

INPUT: Fill blank: measured TGI of the molecule Cc1c2c(nc3ccccc13)C(=O)c1cccnc1C2=O is ____.
OUTPUT: > 100 µM

Others:
INPUT: Bench note: what TGI did Cc1cc2c(c(O)c1-c1c(C)cc(O)c3c1C(=O)C=CC3=O)C(=O)C=CC2=O show?
OUTPUT: 13.8 µM

INPUT: COc1ccc(CCN(CC(=O)N(CC(N)=O)C2CCC[C@@H]2OCc2ccccc2)C(=O)CN(C(=O)CN(CCc2ccc(Cl)cc2)C(=O)CN(C(=O)CN(C)Cc2ccccc2F)[C@H](C)C2CCCCC2)[C@H](C)C2CCCCC2)cc1OC (some centres undefined) ?
OUTPUT: > 50 µM

INPUT: Same question for O=C(O)C1(Cc2ccccc2)Cc2cc3c(cc2C1)CCC3 please.
OUTPUT: > 100 µM

INPUT: // query: C[C@@H]1C(=O)O[C@H]1[C@H](O)CO
OUTPUT: > 100 µM

====

Tested on: CAKI-1 renal
Assay: NCI tumour cell line growth inhibition, 48 h
Measured parameter: TGI (µM)
Express your answer in µM, writing the number without its unit.

Before answering, review these 2 worked examples.
INPUT: Which TGI is reported for this compound? O=C(NCCCl)Nc1cccnc1
OUTPUT: 36.1

INPUT: Request: COc1ccc(NC2=C(I)C(=O)c3ncccc3C2=O)cc1
OUTPUT: 2.62

Consider the record given below.
INPUT: Which TGI is reported for this compound? CN(C)Cc1cc(C(=O)/C=C/c2ccc(Cl)c(Cl)c2)cc(CN(C)C)c1O
OUTPUT: 4.08

====

Test system: ACHN renal
Test: NCI tumour cell line growth inhibition, 48 h
Kindly return TRUE if reported TGI is no lower than 30 µM; return FALSE if it is lower.

INPUT: Decide: is the reported value of TGI for Cc1ccc2cccc(OC(=O)Nc3cccc(C(F)(F)F)c3)c2n1 equal to or greater than 30 µM?
OUTPUT: FALSE

INPUT: Follow-up entry: CC(=O)Nc1ccc(-c2nnc(SCC(=O)Nc3cccc(Cl)c3)o2)cc1
OUTPUT: FALSE

INPUT: One more compound: O=C1c2cccnc2C(=O)c2c1c(C(=O)OCCN1CCCCC1)c1ccccn21
OUTPUT: FALSE

Further cases:
INPUT: Threshold query (TGI >= 30 µM) on CC(NCc1c(O)ccc2ccc(=O)oc12)C(=O)O (stereo not drawn)
OUTPUT: TRUE

INPUT: What do you have for CCN1c2cc(Br)cc3[nH]c(=O)n(c23)CCC1C (stereo not drawn) ?
OUTPUT: TRUE

INPUT: For CCOC(=O)CC[C@H](NC(=O)N[C@H](C)c1ccccc1)C(=O)OCC then?
OUTPUT: TRUE

INPUT: Now the compound CSc1nc2nn(Cc3ccccc3)cc2c(=O)[nH]1
OUTPUT: TRUE

INPUT: CN/C=C(\C(=O)c1ccc(OC)c(OC)c1)c1ccc(OC)cc1 , same question.
OUTPUT: TRUE

====

Tested on: LOX IMVI melanoma
Assay: NCI tumour cell line growth inhibition, 48 h
Listed below: TGI values for each entry.

INPUT: Recorded TGI for COc1cc(-c2nc3sc(C)cn3c2/C=C2\C(=O)Nc3ccccc32)c(Br)c(OC)c1OC , please?
OUTPUT: > 100 µM

More entries:
INPUT: Given the entry CCCCNS(=O)(=O)c1n[nH]c(=O)[nH]c1=O , report its measured TGI.
OUTPUT: > 100 µM

INPUT: Same lookup for O=S1(=O)c2ccccc2C(Nc2ccccc2)N1c1ccccc1 (stereo not given) , please.
OUTPUT: > 100 µM
